TARGET UNDER TEST: Transcriptional coactivator YAP1 (Homo sapiens, UniProt P46937)
Sequence (P46937 whole entry): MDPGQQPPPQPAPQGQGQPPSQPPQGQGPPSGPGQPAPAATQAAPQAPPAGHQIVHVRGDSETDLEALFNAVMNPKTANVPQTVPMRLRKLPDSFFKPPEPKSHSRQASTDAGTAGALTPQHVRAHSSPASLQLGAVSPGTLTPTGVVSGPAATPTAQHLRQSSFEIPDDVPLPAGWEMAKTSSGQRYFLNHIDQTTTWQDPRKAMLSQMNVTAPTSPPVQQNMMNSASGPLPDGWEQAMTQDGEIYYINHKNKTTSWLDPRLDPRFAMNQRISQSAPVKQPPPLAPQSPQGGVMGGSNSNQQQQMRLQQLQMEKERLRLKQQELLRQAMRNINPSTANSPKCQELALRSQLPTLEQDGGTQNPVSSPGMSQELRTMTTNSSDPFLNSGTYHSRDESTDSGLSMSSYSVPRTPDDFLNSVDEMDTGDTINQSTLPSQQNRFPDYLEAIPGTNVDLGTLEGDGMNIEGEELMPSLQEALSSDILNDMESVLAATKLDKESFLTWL
ASSAY COMMENT: Inhibition of YAP (unknown origin) incubated for 24 hrs by Promega Dual-Luciferase Reporter Assay
Measured IC50 of individual entries

Would you please look over these solved cases?
{"columns": ["COMPOUND", "RESULT"],
 "data": [
  ["COC(=O)c1cc(S(N)(=O)=O)ccc1NC1CCCCC1", "0.454 µM"],
  ["CC(NC(=O)c1cc2nc(N(C)C)n(-c3ccc(Br)cc3)c2s1)c1ccccn1 (stereo not drawn)", "0.391 µM"]
]}

Next, consider the following compound.
Entry CNS(=O)(=O)c1ccc(Nc2ccc(C(F)(F)F)cc2)c(-c2cn(C)cn2)c1 : reported IC50 = ?
0.001 µM

---

TARGET UNDER TEST: Transcriptional coactivator YAP1 (Homo sapiens, UniProt P46937)
ASSAY COMMENT: Inhibition of YAP in HEK293T cells incubated for 24 hrs by Promega Dual-Luciferase Reporter Assay
OBSERVABLE: IC50

Would you please look over these solved cases?
{"columns": ["SMILES ENTRY", "TARGET UNDER TEST", "IC50"],
 "data": [
  ["N#CCNC(=O)c1ccc2c(Oc3ccc(C(F)(F)F)cc3)cccc2c1", "Transcriptional coactivator YAP1 (Homo sapiens, UniProt P46937)", "< 0.1 µM"],
  ["CC(C)NC(=O)c1ccc2c(Oc3cccc(Cl)c3)cccc2c1", "Transcriptional coactivator YAP1 (Homo sapiens, UniProt P46937)", "< 0.1 µM"]
]}

Next, consider the following compound.
Entry CS(=O)(=O)NC(=O)c1ccc2c(Oc3ccc(C(F)(F)F)cc3)cccc2c1 : reported IC50 = ?
< 0.1 µM
